Value source: patent US20190077795A1

- targetDesc: UniProtKB Q9NR22
- Sequence (Q9NR22 whole entry): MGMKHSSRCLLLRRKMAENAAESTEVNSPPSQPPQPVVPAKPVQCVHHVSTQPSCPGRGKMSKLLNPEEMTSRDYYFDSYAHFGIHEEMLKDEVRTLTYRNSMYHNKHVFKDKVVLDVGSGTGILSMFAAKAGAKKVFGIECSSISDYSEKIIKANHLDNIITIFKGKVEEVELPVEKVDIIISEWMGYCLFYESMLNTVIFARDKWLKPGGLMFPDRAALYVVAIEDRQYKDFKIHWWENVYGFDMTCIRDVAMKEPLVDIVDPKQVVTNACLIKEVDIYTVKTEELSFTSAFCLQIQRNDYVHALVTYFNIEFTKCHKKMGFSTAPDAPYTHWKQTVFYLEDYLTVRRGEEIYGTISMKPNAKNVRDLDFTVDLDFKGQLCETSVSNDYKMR
- testProtocol: PRMT8 Biochemical Assay
- measurementConditions: PRMT8 IC50 (uM), peptide substrate, 3H-SAM Flashplate assay
recordedMetric: IC50 (µM)
Answer with a number only, understood to be in µM.

## Task Given CNCCN(C)Cc1c[nH]nc1-c1ccc(OCCOc2ccc(N3CCOCC3)cc2)cc1 [Compound 36] , respond with its IC50.
## Result 0.0244

## Task Fill in reported IC50 for this entry: CNCCN(C)Cc1c[nH]nc1-c1ccc(OC2CCC(OC(C)C)CC2)cc1 (stereo not drawn) [Compound 89]
## Result 0.0475

## Task State, in one line, measured IC50 of CNCCN(C)Cc1ccnn1-c1ccc(COC)cc1 [Compound 44]
## Result 0.0235

## Task In one line, give reported IC50 of the entry CNCCN(C)Cc1c[nH]nc1-c1ccc(OCCOc2ccc(OCC(C)C)cc2)cc1 [Compound 40] .
## Result 0.0247

## Task Answer with the recorded IC50 of CNCCN(C)Cc1c[nH]nc1-c1cc(F)c(OCC2CCC2)c(C(F)(F)F)c1 [Compound 5] only.
## Result 0.0122

## Task Kindly indicate its recorded IC50. Item: CCC(CC)Oc1ccc(-n2nccc2CN(C)CCNC)cc1 [Compound 18]
## Result 0.0153

## Task Quote IC50 reported for CNCCN(C)Cc1c[nH]nc1-c1ccc2oc(C(C)C)nc2c1 [Compound 81] please.
## Result 0.0947

## Task Give IC50 for CNCCN(C)Cc1c[nH]nc1-c1ccc(CC(C)C)c(C(F)(F)F)c1 [Compound 50]
## Result 0.0245

## Task Answer with reported IC50 of CNCCN(C)Cc1c[nH]nc1-c1cc(F)c(OC2CCOCC2)c(C(F)(F)F)c1 [Compound 53]
## Result 0.0328

## Task Answer with the recorded IC50 for the compound listed here: CNCCN(C)Cc1c[nH]nc1-c1cc(Cl)c(OCC2CCC2)c(Cl)c1 [Compound 2]
## Result 0.0218

## Task Complete the entry with IC50 for CNCCN(C)Cc1c[nH]nc1[C@H]1CC[C@@H](OCCOc2ccc(OCCOC)cc2)CC1 [Compound 34]
## Result 0.0135

## Task Complete the entry with IC50 for CNCCN(C)Cc1c[nH]nc1-c1ccc(OCCOc2ccc(OCCC(O)CO)cc2)cc1 (stereo not drawn) [Compound 35]
## Result 0.0219

## Task Provide IC50 value for the following compound: CCN(c1ccc(-c2n[nH]cc2CN(C)CCNC)cn1)C1CCOCC1 [Compound 127]
## Result 0.467

## Task Quote IC50 reported for CNCCN(C)Cc1c[nH]nc1-c1cc(OCCOC)cc(C(C)C)c1 [Compound 95] please.
## Result 0.0843

## Task Return value of IC50 for input CNCCN(C)Cc1c[nH]nc1-c1ccc(OC2CCC(OCCOC)CC2)cc1 (stereo not drawn) [Compound 98] , no commentary.
## Result 0.113

## Task Using the record for CNCCN(C)Cc1ccnn1-c1ccc(OCC2CC2)cc1 [Compound 75] , state its measured IC50.
## Result 0.0487

## Task Fill in reported IC50 for this entry: C=C(C)COc1c(Cl)cc(-c2n[nH]cc2CN(C)CCNC)cc1Cl [Compound 7]
## Result 0.0124

## Task Give the value of IC50 reported for the following: CCC(CC)Oc1ccc(-n2ncc(C)c2CN(C)CCNC)cc1 [Compound 114]
## Result 0.0836

## Task Using the record for CNCCN(C)Cc1c[nH]nc1-c1ccc(OCCCOC)c(OC2CCOCC2)c1 [Compound 64] , state its measured IC50.
## Result 0.249

## Task Look up and state reported IC50 for CNCCN(C)Cc1c[nH]nc1-c1ccc(OCCOc2ccc(C)cc2)cc1 [Compound 42]
## Result 0.0514

## Task Please look at this compound and report its IC50: CNCCN(C)Cc1c[nH]nc1-c1cc(F)c(OCCOC)c(C(F)(F)F)c1 [Compound 103]
## Result 0.0421

## Task // Input: CNCCN(C)Cc1ccnn1C1CCC2(CCOC2)CC1 (stereo not drawn) [Compound 54] . Output its IC50 only.
## Result 0.0535

## Task Quick one: give measured IC50 for CNCCN(C)Cc1c[nH]nc1-c1cc(F)c(OCC2CC2)c(C(F)(F)F)c1 [Compound 3]
## Result 0.0219

## Task Give IC50 for the following compound: CC(C)Cc1ccc(-c2n[nH]cc2CN(C)CCN)cc1C(F)(F)F [Compound 48]
## Result 0.0237

## Task Identify the reported IC50 for the following entry. CNCCN(C)Cc1c[nH]nc1-c1cc(C(=O)NCCOC)cc(C(F)(F)F)c1 [Compound 101]
## Result 0.342

## Task Determine from records and report IC50 for CNCCN(C)Cc1c[nH]nc1-c1ccc(OC2CC(O)C2)cc1 (stereo not drawn) [Compound 85]
## Result 0.0853

## Task Using known records, supply IC50 for CNCCN(C)Cc1c[nH]nc1-c1cc(Cl)c(OCC(C)C)c(Cl)c1 [Compound 1]
## Result 0.0173

## Task Quickly give me recorded IC50 for CCOCC(C)(C)c1cc(OCCOC)cc(-c2n[nH]cc2CN(C)CCNC)c1 [Compound 122]
## Result 0.371

## Task Read off the recorded IC50 for CNCCN(C)Cc1c[nH]nc1-c1ccc(OC(C)C)nc1 [Compound 83]
## Result 0.0337

## Task Please supply the value of reported IC50 for the item CCOCC(C)(C)c1ccc(-c2n[nH]cc2CN(C)CCNC)cc1 [Compound 105]
## Result 0.106

## Task Find the measured IC50 of CNCCN(C)Cc1c[nH]nc1-c1ccc(N(C)C2CCOCC2)cc1 [Compound 111] and report it.
## Result 0.252

## Task Respond only with IC50 recorded for CCN(CCOc1ccc(OC)cc1)c1ccc(-c2n[nH]cc2CN(C)CCNC)cc1 [Compound 20]
## Result 0.0199

## Task Dear colleague, please send me the reported IC50 for CNCCN(C)Cc1c[nH]nc1-c1cc(OCCOC)cc(C(F)F)c1 [Compound 24] when you can.
## Result 0.132

## Task Check the records and state IC50 for CNCCN(C)Cc1c[nH]nc1-c1cc(F)c(OC2COC2)c(C(F)(F)F)c1 [Compound 23]
## Result 0.0608

## Task Answer with the recorded IC50 for the compound listed here: CNCCN(C)Cc1c[nH]nc1-c1ccc(OC2CCC(OC)CC2)cc1 (stereo not drawn) [Compound 86]
## Result 0.0686

## Task Look up and state reported IC50 for CNCCN(C)Cc1c[nH]nc1-c1cc(OCCOC)cc(OC(F)(F)F)c1 [Compound 96]
## Result 0.108
